- Tested on: 857933-349-R-J2-PDC complex spheroid viability;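 also: spheroids exposed to compounds for seven days before readout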
- method-description: Anticancer human tumor 857933-349-R-J2-PDC patient-derived colon adenocarcinoma cell line growth inhibition [POLQ]
- experimental-context: second compound 0.1 µM; first compound 0.1 µM; hits give low values
readout-name: viability, T/C (%)

[[record]]
molecule = "CCCS(=O)(=O)Nc1ccc(F)c(C(=O)c2c[nH]c3ncc(-c4ccc(Cl)cc4)cc23)c1F + Cc1cccc(N(C)C(=O)C2C(O)CCN2c2nc(C)cc(C(F)(F)F)c2C#N)c1"
readout_name = "viability, T/C"
observed_measurement = 105

[[record]]
molecule = "Nc1ccn(C2OC(CO)C(O)C2(F)F)c(=O)n1 (stereo unspecified) + Cc1cccc(N(C)C(=O)C2C(O)CCN2c2nc(C)cc(C(F)(F)F)c2C#N)c1"
readout_name = "viability, T/C"
observed_measurement = 68.2

[[record]]
molecule = "COc1cccc2c1C(=O)c1c(O)c3c(c(O)c1C2=O)CC(O)(C(=O)CO)CC3OC1CC(N)C(O)C(C)O1 (stereo unspecified) + Nc1ccc(C#CCN(C(=O)Cc2ncc(C(F)(F)F)cc2C(F)(F)F)c2ccc(F)cc2)nn1"
readout_name = "viability, T/C"
observed_measurement = 67.1

[[record]]
molecule = "COc1cc(C2c3cc4c(cc3C(OC3OC5COC(C)OC5C(O)C3O)C3COC(=O)C23)OCO4)cc(OC)c1O (stereo unspecified) + Cc1cccc(N(C)C(=O)C2C(O)CCN2c2nc(C)cc(C(F)(F)F)c2C#N)c1"
readout_name = "viability, T/C"
observed_measurement = 92.6

[[record]]
molecule = "O=c1[nH]cc(F)c(=O)[nH]1 + Cc1cccc(N(C)C(=O)C2C(O)CCN2c2nc(C)cc(C(F)(F)F)c2C#N)c1"
readout_name = "viability, T/C"
observed_measurement = 109

[[record]]
molecule = "CC[C@@]1(O)C(=O)OCc2c1cc1n(c2=O)Cc2cc3c(CN(C)C)c(O)ccc3nc2-1 + COC1C(OC(N)=O)C(O)C(Oc2ccc3c(O)c(NC(=O)c4ccc(O)c(CC=C(C)C)c4)c(=O)oc3c2C)OC1(C)C"
readout_name = "viability, T/C"
observed_measurement = 44.2

[[record]]
molecule = "O=c1[nH]cc(F)c(=O)[nH]1 + COC1C(OC(N)=O)C(O)C(Oc2ccc3c(O)c(NC(=O)c4ccc(O)c(CC=C(C)C)c4)c(=O)oc3c2C)OC1(C)C"
readout_name = "viability, T/C"
observed_measurement = 91.5

[[record]]
molecule = "COc1cc2cc(C(=O)CCC(=O)O)sc2cc1OC + Cc1cccc(N(C)C(=O)C2C(O)CCN2c2nc(C)cc(C(F)(F)F)c2C#N)c1"
readout_name = "viability, T/C"
observed_measurement = 93

[[record]]
molecule = "CC[C@@]1(O)C(=O)OCc2c1cc1n(c2=O)Cc2cc3c(CN(C)C)c(O)ccc3nc2-1 + Cc1cccc(N(C)C(=O)C2C(O)CCN2c2nc(C)cc(C(F)(F)F)c2C#N)c1"
readout_name = "viability, T/C"
observed_measurement = 49.3

[[record]]
molecule = "O=C(Nc1ccc(O)c(NS(=O)(=O)c2ccc(F)cc2)c1)c1ccc(-c2ccccc2)cc1 + Cc1cccc(N(C)C(=O)C2C(O)CCN2c2nc(C)cc(C(F)(F)F)c2C#N)c1"
readout_name = "viability, T/C"
observed_measurement = 86.2

[[record]]
molecule = "CC[C@@]1(O)C(=O)OCc2c1cc1n(c2=O)Cc2cc3c(CN(C)C)c(O)ccc3nc2-1 + Nc1ccc(C#CCN(C(=O)Cc2ncc(C(F)(F)F)cc2C(F)(F)F)c2ccc(F)cc2)nn1"
readout_name = "viability, T/C"
observed_measurement = 50.6

[[record]]
molecule = "C=CC(=O)N1CCN(c2nc(=O)n(-c3c(C)ccnc3C(C)C)c3nc(-c4c(O)cccc4F)c(F)cc23)C(C)C1 (stereo unspecified) + Cc1cccc(N(C)C(=O)C2C(O)CCN2c2nc(C)cc(C(F)(F)F)c2C#N)c1"
readout_name = "viability, T/C"
observed_measurement = 106

[[record]]
molecule = "COc1cc2cc(C(=O)CCC(=O)O)sc2cc1OC + COC1C(OC(N)=O)C(O)C(Oc2ccc3c(O)c(NC(=O)c4ccc(O)c(CC=C(C)C)c4)c(=O)oc3c2C)OC1(C)C"
readout_name = "viability, T/C"
observed_measurement = 95.5

[[record]]
molecule = "COc1cc(C2c3cc4c(cc3C(OC3OC5COC(C)OC5C(O)C3O)C3COC(=O)C23)OCO4)cc(OC)c1O (stereo unspecified) + COC1C(OC(N)=O)C(O)C(Oc2ccc3c(O)c(NC(=O)c4ccc(O)c(CC=C(C)C)c4)c(=O)oc3c2C)OC1(C)C"
readout_name = "viability, T/C"
observed_measurement = 84.7

[[record]]
molecule = "CC1COCCN1c1cc(C2(O)CC3CCC(C2)O3)c2cnn(-c3ccn[nH]3)c2n1 (stereo unspecified) + Nc1ccc(C#CCN(C(=O)Cc2ncc(C(F)(F)F)cc2C(F)(F)F)c2ccc(F)cc2)nn1"
readout_name = "viability, T/C"
observed_measurement = 74.7

[[record]]
molecule = "CCc1c2c(nc3ccc(O)cc13)-c1cc3c(c(=O)n1C2)COC(=O)[C@]3(O)CC + Nc1ccc(C#CCN(C(=O)Cc2ncc(C(F)(F)F)cc2C(F)(F)F)c2ccc(F)cc2)nn1"
readout_name = "viability, T/C"
observed_measurement = 14.3

[[record]]
molecule = "COc1ccc([C@@H](O)c2cc(-c3ncnc4cc(N5CCOCC5)ccc34)c(F)cc2Cl)nn1 + COC1C(OC(N)=O)C(O)C(Oc2ccc3c(O)c(NC(=O)c4ccc(O)c(CC=C(C)C)c4)c(=O)oc3c2C)OC1(C)C"
readout_name = "viability, T/C"
observed_measurement = 123

[[record]]
molecule = "O=C(Nc1ccc(O)c(NS(=O)(=O)c2ccc(F)cc2)c1)c1ccc(-c2ccccc2)cc1 + COC1C(OC(N)=O)C(O)C(Oc2ccc3c(O)c(NC(=O)c4ccc(O)c(CC=C(C)C)c4)c(=O)oc3c2C)OC1(C)C"
readout_name = "viability, T/C"
observed_measurement = 95.9

[[record]]
molecule = "CCc1cc2c(N3CCc4c(cc(Cn5ccnc5)cc4-c4cn(C)nc4C(F)(F)F)C3=O)ccnc2c(OC)n1 + Cc1cccc(N(C)C(=O)C2C(O)CCN2c2nc(C)cc(C(F)(F)F)c2C#N)c1"
readout_name = "viability, T/C"
observed_measurement = 92.8

[[record]]
molecule = "COc1cccc(OCCCN)c1-c1cc(Nc2cnc(C#N)cn2)n[nH]1 + COC1C(OC(N)=O)C(O)C(Oc2ccc3c(O)c(NC(=O)c4ccc(O)c(CC=C(C)C)c4)c(=O)oc3c2C)OC1(C)C"
readout_name = "viability, T/C"
observed_measurement = 51.5

[[record]]
molecule = "Cn1ncnc1[C@H]1c2n[nH]c(=O)c3cc(F)cc(c23)N[C@@H]1c1ccc(F)cc1 + Cc1cccc(N(C)C(=O)C2C(O)CCN2c2nc(C)cc(C(F)(F)F)c2C#N)c1"
readout_name = "viability, T/C"
observed_measurement = 103

